Could you please report measured inhibition for the items listed next?
Target: Cytochrome P450 2C19 (Homo sapiens) (UniProt P33261)
Sequence (P33261 whole entry, looked up): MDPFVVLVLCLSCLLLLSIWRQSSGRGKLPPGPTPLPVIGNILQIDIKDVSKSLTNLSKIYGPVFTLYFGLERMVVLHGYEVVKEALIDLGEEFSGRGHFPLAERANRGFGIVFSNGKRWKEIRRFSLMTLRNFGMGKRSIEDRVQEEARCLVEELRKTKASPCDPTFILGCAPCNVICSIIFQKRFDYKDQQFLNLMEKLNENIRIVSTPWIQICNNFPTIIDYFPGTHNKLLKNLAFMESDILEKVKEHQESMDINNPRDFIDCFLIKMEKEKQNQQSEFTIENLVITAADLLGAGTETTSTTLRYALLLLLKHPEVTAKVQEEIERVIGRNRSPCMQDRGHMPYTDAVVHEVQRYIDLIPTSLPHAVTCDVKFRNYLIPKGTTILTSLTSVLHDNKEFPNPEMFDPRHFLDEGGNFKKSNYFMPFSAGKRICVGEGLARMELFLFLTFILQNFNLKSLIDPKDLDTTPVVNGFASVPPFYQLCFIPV
Test: blockers of cytochrome P450 2C19 activity – biochemical, luminescence, ADME assay, primary screen (AID 778);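 note: plate controls were negative control wells for no effect and 2.5 mM tranylcypromine positive control for full effect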
Details: CYP2C19 Supersomes, luciferin-H EGE luminescence, 30 min; at 5 µM; stronger effect = higher value
The whole screen tested about 96,000 compounds, of which about 20,000 (21%) were called active. These entries were drawn from the full list.
Give the quantity in %, number only.

stdin: Which value of inhibition has been reported for CCC(=O)N1CCc2cc(S(=O)(=O)NC(C(=O)N3CCc4ccccc4C3)C(C)C)ccc21 (stereo unspecified) in the records?
stdout: 4.8

stdin: Which value of inhibition has been reported for Cc1ccc(Cn2ccc(NC(=O)c3cc(C(C)C)on3)n2)cc1 in the records?
stdout: 97.2

stdin: Which value of inhibition has been reported for Clc1ccc(CSc2nnc(/C=C/c3ccccc3)o2)c(Cl)c1 in the records?
stdout: 1.6

stdin: Which value of inhibition has been reported for Cc1nn(Cc2ccc(F)cc2)c(C)c1NC(=O)c1noc2c1CCc1ccccc1-2 in the records?
stdout: 1

stdin: Which value of inhibition has been reported for O=C(Nc1ccn(Cc2ccc(F)cc2)n1)c1ccncc1 in the records?
stdout: 97.8

stdin: Which value of inhibition has been reported for Cc1ccccc1NC(=O)c1ccccc1NS(=O)(=O)c1cccc2cccnc12 in the records?
stdout: 1.4

stdin: Which value of inhibition has been reported for COc1ccccc1N1CCN(C(=O)CSc2nnc(-c3ccoc3C)o2)CC1 in the records?
stdout: 17.4

stdin: Which value of inhibition has been reported for S=c1[nH]nc(CSCc2ccc(Cl)cc2Cl)n1-c1ccccc1 in the records?
stdout: 64.8

stdin: Which value of inhibition has been reported for O=c1[nH]nc(CSCc2ccccc2Cl)[nH]1 in the records?
stdout: 1.4

stdin: Which value of inhibition has been reported for O=S(=O)(NCCOc1cccc2cccnc12)c1ccc(F)cc1 in the records?
stdout: 92.5

stdin: Which value of inhibition has been reported for CSc1ccc(CCNC(=O)C2CCN(c3nnc(-n4cccc4)s3)CC2)cc1 in the records?
stdout: 28.8

* * *

Target: Cytochrome P450 2C19 (Homo sapiens) (UniProt P33261)
Assay: blockers of cytochrome P450 2C19 activity – biochemical, luminescence, ADME assay, primary screen (AID 778);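 note: plate controls were negative control wells for no effect and 2.5 mM tranylcypromine positive control for full effect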
Details: CYP2C19 Supersomes, luciferin-H EGE luminescence, 30 min; at 5 µM; stronger effect = higher value
About 20,000 (21%) of roughly 96,000 compounds were called active. Not all results are given here.
Assign 1 to entries whose inhibition meets or exceeds 30%; assign -1 to the rest.

stdin: Is the recorded value of inhibition equal to or greater than 30% for this compound? COC(=O)c1ccc(/C=N\n2c(C)nnc2C)cc1
stdout: -1

stdin: Is the recorded value of inhibition equal to or greater than 30% for this compound? CCC(=O)NC(=Nc1nc2ccccc2s1)NC(=O)CC
stdout: -1

stdin: Is the recorded value of inhibition equal to or greater than 30% for this compound? O=C(NCc1ccc2c(c1)OCO2)c1ccc2c(c1)C(=O)N(CC1CCCO1)C2=O (stereo unspecified)
stdout: -1

stdin: Is the recorded value of inhibition equal to or greater than 30% for this compound? O=C(CC(Cc1ccccc1)C(=O)O)NCCc1ccc2c(c1)OCO2 (stereo unspecified)
stdout: -1

stdin: Is the recorded value of inhibition equal to or greater than 30% for this compound? COc1ccc(C(=O)Nc2ccc3c(c2)OCO3)cc1OC
stdout: 1

stdin: Is the recorded value of inhibition equal to or greater than 30% for this compound? O=C(/C=C/c1ccco1)Nc1ccc(Oc2ccccc2)cc1
stdout: -1

stdin: Is the recorded value of inhibition equal to or greater than 30% for this compound? CC1(C)Oc2ccc3ccc(=O)oc3c2/C(=C/NCCO)C1=O
stdout: -1

stdin: Is the recorded value of inhibition equal to or greater than 30% for this compound? CCNC(=O)CN(c1ccc(C)cc1)S(=O)(=O)c1ccc(SC)cc1
stdout: 1

stdin: Is the recorded value of inhibition equal to or greater than 30% for this compound? CCOC(=O)CCCNC(=O)CN1C(=O)NC(CCc2ccccc2)C1=O (stereo unspecified)
stdout: -1

stdin: Is the recorded value of inhibition equal to or greater than 30% for this compound? O=S(N1CCCCCC1)C12CC3CC(CC(C3)C1)C2 (stereo unspecified)
stdout: 1

stdin: Is the recorded value of inhibition equal to or greater than 30% for this compound? Cn1cc(CCC(=O)NCc2ccc3c(c2)OCO3)c2ccccc21
stdout: 1

stdin: Is the recorded value of inhibition equal to or greater than 30% for this compound? O=C(CCCn1c(SCC(=O)c2ccc(F)cc2)nc2ccccc2c1=O)NCc1ccco1
stdout: 1

stdin: Is the recorded value of inhibition equal to or greater than 30% for this compound? CC(C)CNS(=O)(=O)c1ccc(OCC(=O)Nc2ccc3c(c2)OCO3)c(Cl)c1
stdout: -1

stdin: Is the recorded value of inhibition equal to or greater than 30% for this compound? COC(=O)c1ccccc1NC(=O)CSc1ccccn1
stdout: -1

stdin: Is the recorded value of inhibition equal to or greater than 30% for this compound? CC1CCCCN1CC(=O)NCc1ccc2c(c1)OCO2 (stereo unspecified)
stdout: 1

stdin: Is the recorded value of inhibition equal to or greater than 30% for this compound? O=C(CCCn1c(SCC(=O)c2ccccc2)nc2ccccc2c1=O)NCC1CCCO1 (stereo unspecified)
stdout: 1

stdin: Is the recorded value of inhibition equal to or greater than 30% for this compound? CCn1cc(C(=O)NCc2ccc(OC)cc2OC)c(=O)c2ccc(C)nc21
stdout: 1

stdin: Is the recorded value of inhibition equal to or greater than 30% for this compound? COc1cccc(N(CC(=O)NCCSc2ccccn2)S(C)(=O)=O)c1
stdout: 1

stdin: Is the recorded value of inhibition equal to or greater than 30% for this compound? CCc1c(C)nc2ncnn2c1N1CCC(C(=O)NCc2ccc3c(c2)OCO3)CC1
stdout: -1

stdin: Is the recorded value of inhibition equal to or greater than 30% for this compound? O=C(CSc1nc(-c2ccco2)cc(C(F)(F)F)n1)N1CCc2ccccc2C1
stdout: 1

stdin: Is the recorded value of inhibition equal to or greater than 30% for this compound? CCOC(=O)c1cnc(-n2nc(C)cc2C)nc1-n1nc(C)cc1C
stdout: -1

stdin: Is the recorded value of inhibition equal to or greater than 30% for this compound? O=C(COc1ccc(Cl)cc1)NCCSc1ccccc1
stdout: -1

stdin: Is the recorded value of inhibition equal to or greater than 30% for this compound? CCCNS(=O)(=O)c1ccc2c(c1)CCCN2C(C)=O
stdout: -1

stdin: Is the recorded value of inhibition equal to or greater than 30% for this compound? CCCC(=O)Nc1c(O)c2ccccc2[nH]c1=O
stdout: -1

stdin: Is the recorded value of inhibition equal to or greater than 30% for this compound? COc1ccc(CCN(C(=O)COc2ccccc2)c2nc(-c3ccccc3)cs2)cc1OC
stdout: 1

stdin: Is the recorded value of inhibition equal to or greater than 30% for this compound? O=C(CCSc1ccccc1)NCCSc1ccccn1
stdout: 1

stdin: Is the recorded value of inhibition equal to or greater than 30% for this compound? C=CCN(C(=O)Nc1ccc2oc(C)nc2c1)c1ccccc1
stdout: -1

stdin: Is the recorded value of inhibition equal to or greater than 30% for this compound? Cc1cc(Cl)c(S(=O)(=O)Nc2ccc3c(c2)OCCO3)cc1OCC(N)=O
stdout: -1

stdin: Is the recorded value of inhibition equal to or greater than 30% for this compound? CCCCn1c(SCC(=O)NCC2CCCO2)nc2ccc(N3CCOCC3)cc2c1=O (stereo unspecified)
stdout: 1

stdin: Is the recorded value of inhibition equal to or greater than 30% for this compound? CCC(CC)C(=O)N1CC(=O)Nc2ccc(Br)cc2C1c1ccccc1 (stereo unspecified)
stdout: 1

stdin: Is the recorded value of inhibition equal to or greater than 30% for this compound? C=CCn1c(C(C)NC(=O)CC)nc2ccccc21 (stereo unspecified)
stdout: -1

stdin: Is the recorded value of inhibition equal to or greater than 30% for this compound? O=C(CCn1c(SCC(=O)c2ccccc2)nc2ccccc2c1=O)NCc1ccc(F)cc1
stdout: 1

stdin: Is the recorded value of inhibition equal to or greater than 30% for this compound? O=C(CSc1nc2cc3c(cc2c(=O)n1CCC1=CCCCC1)OCO3)NCc1ccco1
stdout: -1

stdin: Is the recorded value of inhibition equal to or greater than 30% for this compound? O=C(COc1ccccc1)NCc1ccc2c(c1)OCO2
stdout: 1

stdin: Is the recorded value of inhibition equal to or greater than 30% for this compound? O=C(Nc1ccc(Sc2ccc(Br)cc2)cc1)c1ccco1
stdout: -1

stdin: Is the recorded value of inhibition equal to or greater than 30% for this compound? CCOC(=O)N1CCC(NC(=O)CCc2cn(C)c3ccccc23)CC1
stdout: -1

stdin: Is the recorded value of inhibition equal to or greater than 30% for this compound? C=CCN(C(=O)Cn1ncc2c1-c1cc(C)ccc1OC2)c1ccccc1
stdout: 1

stdin: Is the recorded value of inhibition equal to or greater than 30% for this compound? Cc1nc(C)c2c(c1C(F)(F)F)-c1ccccc1C2(F)F
stdout: -1

stdin: Is the recorded value of inhibition equal to or greater than 30% for this compound? Cc1ccc(/C=N\n2c(-c3ccccc3)n[nH]c2=S)s1
stdout: -1

stdin: Is the recorded value of inhibition equal to or greater than 30% for this compound? CC1CCCCN1S(=O)(=O)c1ccc(C(=O)Nc2nnc(-c3cccs3)o2)cc1 (stereo unspecified)
stdout: -1

stdin: Is the recorded value of inhibition equal to or greater than 30% for this compound? Nc1c(-c2ccc(F)cc2)cnc2ncnn12
stdout: -1

stdin: Is the recorded value of inhibition equal to or greater than 30% for this compound? COc1ccc(S(=O)(=O)Nc2ccc3c(c2)OCO3)cc1Cl
stdout: 1

stdin: Is the recorded value of inhibition equal to or greater than 30% for this compound? Cc1ccnc(NC(=O)c2ccc(NC(=O)c3ccco3)cc2)c1
stdout: -1

stdin: Is the recorded value of inhibition equal to or greater than 30% for this compound? CCn1cc(C(=O)NCc2ccc3c(c2)OCO3)c2cc(OC)c(OC)cc2c1=O
stdout: -1

stdin: Is the recorded value of inhibition equal to or greater than 30% for this compound? COC(=O)c1ccc(NC(=O)CN(c2ccc(C)cc2)S(=O)(=O)c2c(C)n[nH]c2C)cc1
stdout: 1
